tested on: Leishmania major; experiment: Antileishmanial activity against promastigote form of Leishmania major after 72 hr by Neubauer counting analysis; type: functional, organism-based
Bucketed by reported IC50, buckets being class A: < 0.7 µg/mL; class B: ≥ 0.7 µg/mL and < 0.8 µg/mL; class C: ≥ 0.8 µg/mL

Record excerpt, results attached:
chemical smiles	target	label value
O=[N+]([O-])c1ccc(-c2nc3cc([N+](=O)[O-])ccc3[nH]2)cc1	Leishmania major	class B
c1cncc(-c2nc3ccccc3[nH]2)c1	Leishmania major	class A
Cc1ccc(-c2nc3cc([N+](=O)[O-])ccc3[nH]2)cc1	Leishmania major	class C

# bin lookup: classify COc1ccc(-c2nc3cc([N+](=O)[O-])ccc3[nH]2)cc1 by its IC50
class C

# bin lookup: classify O=[N+]([O-])c1ccc2[nH]c(-c3c[nH]c4ccccc34)nc2c1 by its IC50
class A

# bin lookup: classify CCCCOc1ccc(-c2nc3cc([N+](=O)[O-])ccc3[nH]2)cc1 by its IC50
class B

# bin lookup: classify c1ccc2[nH]c(-c3ccncc3)nc2c1 by its IC50
class C

# bin lookup: classify O=[N+]([O-])c1ccc2nc(-c3ccccc3Cl)[nH]c2c1 by its IC50
class C

# bin lookup: classify c1csc(-c2nc3ccccc3[nH]2)c1 by its IC50
class A

# bin lookup: classify O=[N+]([O-])c1ccc2[nH]c(-c3ccc(Cl)cc3)nc2c1 by its IC50
class A

# bin lookup: classify O=[N+]([O-])c1ccc2[nH]c(-c3ccc(F)cc3)nc2c1 by its IC50
class B

# bin lookup: classify O=[N+]([O-])c1ccc2[nH]c(-c3ccccn3)nc2c1 by its IC50
class B

Attribution: ChEMBL document CHEMBL3046371
